assay readout: melting point

[[record]]
compound = "Cc1ccc(C(=O)CCl)cc1S(N)(=O)=O"
assay_readout = "melting point"
reading = "166 °C"

[[record]]
compound = "CC(=O)NC(Cc1ccc(C)c(C)c1)C(=O)O (racemic)"
assay_readout = "melting point"
reading = "136 to 139 °C"

[[record]]
compound = "CN1C(=O)NC(Cc2ccccc2)C1=O (centres undefined)"
assay_readout = "melting point"
reading = "172 °C"

[[record]]
compound = "CC(C)c1cccc(C(C)C)c1NC(=O)Nc1nc(-c2ccccc2)ns1"
assay_readout = "melting point"
reading = "180 to 183 °C"

[[record]]
compound = "CN(C)C=Nc1c(Cl)cc(N=Cc2cc(Cl)cc(Cl)c2)cc1Cl"
assay_readout = "melting point"
reading = "194 to 195 °C"

[[record]]
compound = "CCC(O)CNC(=O)c1nn(C2CCCCO2)cc1NC(=O)c1ccccn1 (centres undefined)"
assay_readout = "melting point"
reading = "160 to 161 °C"

[[record]]
compound = "CCc1ccc2c(c1)C(=O)c1ccc(C(=O)O)cc1S2(=O)=O"
assay_readout = "melting point"
reading = "300 to 303 °C"

[[record]]
compound = "CCOc1ccccc1-c1nc2cc3nc[nH]c3cc2c(=O)[nH]1"
assay_readout = "melting point"
reading = "194 to 196 °C"

[[record]]
compound = "CC(CO)Nc1nc(-c2ccc(Br)cc2)cs1 (centres undefined)"
assay_readout = "melting point"
reading = "100 to 101 °C"

[[record]]
compound = "CCCC1CC(=O)c2c(NC(=O)C(=O)OCC)ccc(C)c21 (centres undefined)"
assay_readout = "melting point"
reading = "84 to 86 °C"

[[record]]
compound = "COCCc1nc2c(N)nc3ccccc3c2n1CCCCNC(=O)c1cnc2ccccc2n1"
assay_readout = "melting point"
reading = "85 to 87 °C"

[[record]]
compound = "c1cncc(Cn2c(-c3ccc4c(c3)OCO4)nc3ccccc32)c1"
assay_readout = "melting point"
reading = "152 to 153 °C"

[[record]]
compound = "O=C(O)C(O)c1cccc(OCc2ccccc2Cl)c1OCc1ccncc1 (centres undefined)"
assay_readout = "melting point"
reading = "181 to 183 °C"

[[record]]
compound = "O=C(O)c1ccccc1C(=O)c1cccc(NC(=O)c2ccn3c2CSC3c2cccnc2)c1 (centres undefined)"
assay_readout = "melting point"
reading = "315 °C"

[[record]]
compound = "Nc1ccc2c(c1)NC(=O)C(CCCN1CCN(c3ccc(F)cc3)CC1)O2 (centres undefined)"
assay_readout = "melting point"
reading = "158 to 159 °C"

[[record]]
compound = "CN(C(=O)Nc1ccc(Oc2ccccc2)cc1)C(Cl)C(Cl)(Cl)Cl (centres undefined)"
assay_readout = "melting point"
reading = "160 to 162 °C"

[[record]]
compound = "CCC(=O)c1cc2c(c(Cl)c1O)OC(C(=O)O)C2 (centres undefined)"
assay_readout = "melting point"
reading = "227 to 229 °C"

[[record]]
compound = "CCOC(=O)C1=C(COCC#CC(N)=O)NC(C)=C(C(=O)OC)C1c1cccc(Cl)c1Cl (centres undefined)"
assay_readout = "melting point"
reading = "147 to 148 °C"

[[record]]
compound = "CC(C)(C)c1cc(C(C)(C)C)c(=O)c2nc3ccccc3sc1-2"
assay_readout = "melting point"
reading = "137 to 141 °C"

